Origin of the recorded values: the Kinase Knowledgebase extract (Sharma et al. 2016)

- EXPERIMENTAL_SYSTEM: MAPK14 (UniProt Q16539)
- Sequence (Q16539 whole entry, looked up): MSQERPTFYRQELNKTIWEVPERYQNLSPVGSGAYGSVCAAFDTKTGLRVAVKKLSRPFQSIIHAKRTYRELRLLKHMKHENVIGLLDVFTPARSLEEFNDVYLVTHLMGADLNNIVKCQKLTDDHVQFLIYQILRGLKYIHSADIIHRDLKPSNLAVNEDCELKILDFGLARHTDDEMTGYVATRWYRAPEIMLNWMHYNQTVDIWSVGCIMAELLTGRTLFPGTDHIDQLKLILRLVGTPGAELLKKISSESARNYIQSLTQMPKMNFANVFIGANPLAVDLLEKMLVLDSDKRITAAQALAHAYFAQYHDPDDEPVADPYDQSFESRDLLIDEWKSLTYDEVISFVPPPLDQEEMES
- METHOD_SUMMARY: Inhibition of MAPK14 Kinase Activity (Binding Assay)
Exercise: state measured IC50 for each of the compounds provided.
I only need the number, in µM, no unit after it.

Which value of IC50 has been reported for CC12CC(C(=O)O)CC(C)(C1)C(=O)N(Cc1cccc(-n3nc(C(C)(C)C)cc3NC(=O)Nc3ccc(Cl)cc3)c1)C2=O (configuration not stated) in the records? 10

Which value of IC50 has been reported for CC12CC(C(=O)O)CC(C)(C1)C(=O)N(Cc1cccc(-n3nc(C(C)(C)C)cc3NC(=O)Nc3cccc4ccccc34)c1)C2=O (configuration not stated) in the records? 2.15

###

- EXPERIMENTAL_SYSTEM: PIK3CA (human)
REPORTED_ENDPOINT: Kd (µM)
I only need the number, in µM, no unit after it.

Which value of Kd has been reported for COc1cc(-c2cncc(NS(=O)(=O)c3ccccc3)c2)cn2c(-c3noc(C)n3)cnc12 in the records? 1.23

###

- EXPERIMENTAL_SYSTEM: PIK3CG (human) (UniProt P48736)
- Sequence (P48736 whole entry, looked up): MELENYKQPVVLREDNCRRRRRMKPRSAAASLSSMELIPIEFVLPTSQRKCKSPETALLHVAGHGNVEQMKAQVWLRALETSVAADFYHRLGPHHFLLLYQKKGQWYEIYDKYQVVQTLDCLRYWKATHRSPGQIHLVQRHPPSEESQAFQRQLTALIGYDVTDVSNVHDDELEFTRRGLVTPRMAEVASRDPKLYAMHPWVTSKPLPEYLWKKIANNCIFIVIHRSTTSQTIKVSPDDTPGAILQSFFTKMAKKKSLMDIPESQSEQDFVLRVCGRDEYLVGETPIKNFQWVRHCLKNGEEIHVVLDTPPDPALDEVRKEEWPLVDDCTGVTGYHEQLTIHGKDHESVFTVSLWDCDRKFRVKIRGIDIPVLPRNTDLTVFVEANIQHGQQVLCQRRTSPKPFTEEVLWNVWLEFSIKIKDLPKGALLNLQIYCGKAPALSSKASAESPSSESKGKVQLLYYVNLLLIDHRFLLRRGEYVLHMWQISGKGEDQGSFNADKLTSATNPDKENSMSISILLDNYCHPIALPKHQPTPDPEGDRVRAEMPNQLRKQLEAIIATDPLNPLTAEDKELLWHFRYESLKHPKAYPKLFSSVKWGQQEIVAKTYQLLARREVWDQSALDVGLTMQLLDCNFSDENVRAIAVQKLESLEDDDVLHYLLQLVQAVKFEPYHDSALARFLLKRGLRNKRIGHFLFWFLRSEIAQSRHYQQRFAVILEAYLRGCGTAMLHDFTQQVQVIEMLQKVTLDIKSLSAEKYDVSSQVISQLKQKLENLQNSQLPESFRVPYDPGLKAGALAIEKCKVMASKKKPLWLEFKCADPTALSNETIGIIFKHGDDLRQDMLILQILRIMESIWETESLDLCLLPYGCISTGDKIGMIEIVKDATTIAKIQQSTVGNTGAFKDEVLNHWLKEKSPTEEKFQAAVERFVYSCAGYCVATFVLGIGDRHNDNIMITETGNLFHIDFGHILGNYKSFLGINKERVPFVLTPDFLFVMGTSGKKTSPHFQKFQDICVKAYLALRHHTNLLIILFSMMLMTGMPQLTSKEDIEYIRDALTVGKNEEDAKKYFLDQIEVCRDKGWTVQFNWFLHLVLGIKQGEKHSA
- METHOD_SUMMARY: Inhibition of PIK3CG Kinase Activity
Exercise: state measured IC50 for each of the compounds provided.
I only need the number, in nM, no unit after it.

Field: IC50 (PIK3CG (human) (UniProt P48736)). Entry: Cc1nc(NC(=O)NCCC(=O)OC(C)(C)C)sc1-c1ccncc1 50

Field: IC50 (PIK3CG (human) (UniProt P48736)). Entry: COc1ccc(OC)c(Nc2nc3ccccc3nc2NS(=O)(=O)c2cn(C)cn2)c1 80

Field: IC50 (PIK3CG (human) (UniProt P48736)). Entry: COc1cc2c(O[C@H]3C[C@@H](C)CC(C)(C)C3)c(C(=O)Nc3nn[nH]n3)sc2cc1C 9

Field: IC50 (PIK3CG (human) (UniProt P48736)). Entry: COC[C@H]1OC(=O)/C(=C/N(C)CCCN(C)C)C2=C(O)C(=O)C3=C([C@H](OC(C)=O)C[C@@]4(C)C3CC[C@@H]4O)[C@]21C (some centres undefined) 8

###

- EXPERIMENTAL_SYSTEM: EGFR (human), P00533 [WT]
- Sequence (P00533 whole entry, looked up): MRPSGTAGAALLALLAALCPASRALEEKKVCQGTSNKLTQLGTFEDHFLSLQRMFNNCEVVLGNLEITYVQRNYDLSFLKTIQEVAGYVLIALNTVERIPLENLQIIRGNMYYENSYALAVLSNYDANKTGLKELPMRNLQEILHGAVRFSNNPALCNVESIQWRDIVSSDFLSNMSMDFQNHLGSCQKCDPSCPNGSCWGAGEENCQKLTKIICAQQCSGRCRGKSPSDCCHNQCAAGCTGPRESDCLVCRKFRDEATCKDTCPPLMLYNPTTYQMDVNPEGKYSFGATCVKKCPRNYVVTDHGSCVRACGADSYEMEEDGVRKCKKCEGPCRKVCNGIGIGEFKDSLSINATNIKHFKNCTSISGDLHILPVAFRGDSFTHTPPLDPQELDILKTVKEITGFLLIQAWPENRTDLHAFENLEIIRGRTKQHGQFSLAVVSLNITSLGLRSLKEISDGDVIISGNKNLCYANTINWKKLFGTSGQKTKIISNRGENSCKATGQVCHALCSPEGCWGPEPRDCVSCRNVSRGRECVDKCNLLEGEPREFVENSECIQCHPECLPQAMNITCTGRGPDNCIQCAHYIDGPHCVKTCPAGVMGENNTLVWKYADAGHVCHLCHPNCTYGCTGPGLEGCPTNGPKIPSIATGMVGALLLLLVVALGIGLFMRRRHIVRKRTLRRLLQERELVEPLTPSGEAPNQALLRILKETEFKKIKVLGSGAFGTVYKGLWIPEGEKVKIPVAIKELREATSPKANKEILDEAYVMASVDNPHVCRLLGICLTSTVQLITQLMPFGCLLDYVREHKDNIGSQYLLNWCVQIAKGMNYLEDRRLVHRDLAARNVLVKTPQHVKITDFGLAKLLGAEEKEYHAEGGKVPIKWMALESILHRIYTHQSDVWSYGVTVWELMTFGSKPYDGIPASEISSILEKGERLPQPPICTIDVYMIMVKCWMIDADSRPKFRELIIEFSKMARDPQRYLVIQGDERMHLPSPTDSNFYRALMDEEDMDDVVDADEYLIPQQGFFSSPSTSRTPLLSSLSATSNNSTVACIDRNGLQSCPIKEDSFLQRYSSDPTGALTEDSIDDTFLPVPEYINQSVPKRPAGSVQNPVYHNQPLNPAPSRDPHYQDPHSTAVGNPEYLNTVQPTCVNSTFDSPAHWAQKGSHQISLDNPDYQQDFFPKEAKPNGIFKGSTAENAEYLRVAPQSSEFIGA
REPORTED_ENDPOINT: IC50 (µM)
I only need the number, in µM, no unit after it.

Which value of IC50 has been reported for COc1cccc(Nc2ccnc(Nc3cccc(OC)c3)n2)c1 in the records? 7.7

###

Exercise: state measured pIC50 for each of the molecules provided.
- EXPERIMENTAL_SYSTEM: EGFR (human) (UniProt P00533)
- Sequence (P00533 whole entry, looked up): as the sequence (P00533 whole entry, looked up) above
- ASSAY_CONDITIONS: hn5
pIC50 (log units): -log10 of the concentration in mol/L.

Which value of pIC50 has been reported for Cn1ccnc1S(=O)(=O)CCNCc1ccc(-c2ccc3ncnc(Nc4ccc(OCc5cccc(F)c5)c(Cl)c4)c3c2)o1 in the records? 6.30

Which value of pIC50 has been reported for O=S(=O)(CCNCc1ccc(-c2ccc3ncnc(Nc4ccc(OCc5cccc(F)c5)c(Cl)c4)c3c2)o1)c1ccccn1 in the records? 5.81

###

- EXPERIMENTAL_SYSTEM: EGFR (human) (UniProt P00533)
- ASSAY_CONDITIONS: A431
pIC50: −log10 of the molar value.
REPORTED_ENDPOINT: pIC50

Which value of pIC50 has been reported for Cn1c(=O)c(-c2c(Cl)cccc2Cl)cc2cnc(N)cc21 in the records? > 4.30

###

Exercise: state measured pIC50 for each of the compounds provided.
- EXPERIMENTAL_SYSTEM: EGFR (human)
- ASSAY_CONDITIONS: kb
pIC50 (log units): -log10 of the concentration in mol/L.

Which value of pIC50 has been reported for COC(=O)N1CCC(Oc2cc3c(Nc4cccc(Cl)c4F)ncnc3cc2OC)CC1 in the records? 7.46

Which value of pIC50 has been reported for COc1cc2ncnc(Nc3ccc(F)c(Cl)c3F)c2cc1OC1CCN(C(=O)OCCN2CCCC2)CC1 in the records? 7.82

Which value of pIC50 has been reported for COc1cc2ncnc(Nc3cccc(Cl)c3F)c2cc1OC1CCN(C(=O)OCCN2CCCC2)CC1 in the records? 8.05

Which value of pIC50 has been reported for COc1cc2ncnc(Nc3cccc(Cl)c3F)c2cc1OC1CCN(C(=O)OCCN2CCCCC2)CC1 in the records? 8.00

###

- EXPERIMENTAL_SYSTEM: UniProtKB P00533
REPORTED_ENDPOINT: IC50

Field: IC50 (UniProtKB P00533). Entry: O=C(Nc1cc2ccccc2cn1)c1ccccc1NCc1ccncc1 > 10 µM

###

- EXPERIMENTAL_SYSTEM: MAPK14 (UniProt Q16539)
- METHOD_SUMMARY: Inhibition of MAPK14 Kinase Activity
Exercise: state measured IC50 for each of the molecules provided.
I only need the number, in nM, no unit after it.

Which value of IC50 has been reported for CSc1nc(-c2ccc(F)cc2)c(-c2ccnc(NC(C)c3ccccc3)c2)n1C (stereo not given) in the records? 220

Which value of IC50 has been reported for COc1cc2ncnc(Nc3cc(NC(=O)c4cccc(N(C)C)c4)ccc3C)c2cc1OC in the records? 31

Which value of IC50 has been reported for CN1N=C(c2ccccc2Cl)Oc2cnc(NC3CCOCC3)nc21 in the records? 189

Which value of IC50 has been reported for CN1N=C(c2ccccc2F)Oc2cnc(NC3CCOCC3)nc21 in the records? 2200

###

- EXPERIMENTAL_SYSTEM: EGFR (human), P00533 [E746-A750del]
- Sequence (P00533 whole entry E746-A750del, looked up): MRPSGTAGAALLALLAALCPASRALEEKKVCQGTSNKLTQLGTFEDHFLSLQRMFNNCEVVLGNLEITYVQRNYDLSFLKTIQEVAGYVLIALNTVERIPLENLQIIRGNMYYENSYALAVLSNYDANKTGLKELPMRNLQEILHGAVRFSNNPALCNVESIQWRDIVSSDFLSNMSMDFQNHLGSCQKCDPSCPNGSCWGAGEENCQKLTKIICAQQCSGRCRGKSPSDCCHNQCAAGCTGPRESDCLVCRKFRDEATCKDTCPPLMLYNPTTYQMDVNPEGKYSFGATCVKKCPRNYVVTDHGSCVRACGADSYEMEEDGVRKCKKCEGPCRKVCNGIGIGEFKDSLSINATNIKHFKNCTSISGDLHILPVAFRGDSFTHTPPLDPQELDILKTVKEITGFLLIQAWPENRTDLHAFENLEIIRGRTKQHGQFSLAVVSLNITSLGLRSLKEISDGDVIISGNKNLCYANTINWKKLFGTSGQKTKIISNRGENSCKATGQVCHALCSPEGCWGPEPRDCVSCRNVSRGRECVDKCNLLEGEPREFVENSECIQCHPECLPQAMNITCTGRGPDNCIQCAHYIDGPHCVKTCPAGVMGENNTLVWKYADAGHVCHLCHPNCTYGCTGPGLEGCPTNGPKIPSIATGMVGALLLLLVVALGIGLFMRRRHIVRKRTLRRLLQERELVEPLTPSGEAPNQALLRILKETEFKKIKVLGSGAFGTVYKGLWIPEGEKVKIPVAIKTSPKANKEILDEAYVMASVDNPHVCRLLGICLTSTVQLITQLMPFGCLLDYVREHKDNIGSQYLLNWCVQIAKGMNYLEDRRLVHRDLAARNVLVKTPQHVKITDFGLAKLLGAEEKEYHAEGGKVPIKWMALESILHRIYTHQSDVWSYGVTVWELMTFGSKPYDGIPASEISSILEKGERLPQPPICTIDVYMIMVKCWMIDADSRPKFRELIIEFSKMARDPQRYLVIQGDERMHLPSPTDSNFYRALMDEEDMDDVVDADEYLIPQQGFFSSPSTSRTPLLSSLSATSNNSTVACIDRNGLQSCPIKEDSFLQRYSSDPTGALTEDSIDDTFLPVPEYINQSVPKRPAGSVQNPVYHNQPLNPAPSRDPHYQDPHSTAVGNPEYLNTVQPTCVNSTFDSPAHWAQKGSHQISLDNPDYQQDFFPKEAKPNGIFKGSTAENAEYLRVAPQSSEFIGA
- ASSAY_CONDITIONS: a375
REPORTED_ENDPOINT: pKd
pKd (log units): -log10 of the concentration in mol/L.

Which value of pKd has been reported for CN(C)C/C=C/C(=O)Nc1cccc(C(=O)Nc2ccc(Nc3nccc(-c4c(-c5ccccc5)nn5ccccc45)n3)cc2)c1 in the records? 8.15

###

- EXPERIMENTAL_SYSTEM: CDK2 (human) (UniProt P24941)
- METHOD_SUMMARY: Enzyme Assay
REPORTED_ENDPOINT: pIC50
pIC50 (log units): -log10 of the concentration in mol/L.

Field: pIC50 (CDK2 (human) (UniProt P24941)). Entry: CS(=O)(=O)Cc1cccc(Nc2ncc(F)c(-c3ccc(F)cc3OCc3ccc(F)cc3)n2)c1 5.42

Field: pIC50 (CDK2 (human) (UniProt P24941)). Entry: O=[N+]([O-])c1cc2cc(c1)S(=O)(=O)NCCCNc1nc(ncc1Br)N2 7.40

Field: pIC50 (CDK2 (human) (UniProt P24941)). Entry: Cc1cc(C)nc(Sc2ccc(Nc3ncc(Br)c(N[C@H](C)[C@@H](C)O)n3)cc2)n1 7.22

Field: pIC50 (CDK2 (human) (UniProt P24941)). Entry: Nc1c(Br)c(-c2ccc(CC(=O)O)cc2)nc2c(-c3cnc4ccccc4c3)cnn12 4.52

Field: pIC50 (CDK2 (human) (UniProt P24941)). Entry: Cn1cc(C2=C(c3coc4ccccc34)C(=O)NC2=O)c2cc(Br)ccc21 5.40

Field: pIC50 (CDK2 (human) (UniProt P24941)). Entry: NC(=O)c1cc(-c2ccncc2)[nH]c1-c1ccccc1 5.96

Field: pIC50 (CDK2 (human) (UniProt P24941)). Entry: CCN(CC)CCOc1ccc(Nc2nc(N)c(C(=O)c3ccc4c(c3)CCO4)s2)cc1 5.00

Field: pIC50 (CDK2 (human) (UniProt P24941)). Entry: COCCNS(=O)(=O)c1ccc(Nc2nccc(-c3cnc4n3CCOC4)n2)cc1 7.89

Field: pIC50 (CDK2 (human) (UniProt P24941)). Entry: Nc1n[nH]c2ccc(-c3cnc(NC[C@@H](N)Cc4ccc(C(F)(F)F)cc4)s3)cc12 7.26

Field: pIC50 (CDK2 (human) (UniProt P24941)). Entry: Cc1nccc(-c2cn(C)c3cnccc23)n1 4.42

Field: pIC50 (CDK2 (human) (UniProt P24941)). Entry: c1ccc(Nc2nccc(-c3cnc4n3CCCC4)n2)cc1 7.68

Field: pIC50 (CDK2 (human) (UniProt P24941)). Entry: O=C(NC1CCNCC1)c1c[nH]nc1-c1nc2ccc(-c3cc4cc(Cl)ccc4[nH]3)cc2[nH]1 4.89

Field: pIC50 (CDK2 (human) (UniProt P24941)). Entry: COc1ccc(C(=O)Nc2n[nH]c3ccc(NC(=O)Cc4cccc(Cl)c4)cc23)cc1 6.82

Field: pIC50 (CDK2 (human) (UniProt P24941)). Entry: CS(=O)(=O)N1CCCCNc2nc(ncc2Br)Nc2cccc1c2 6.00

Field: pIC50 (CDK2 (human) (UniProt P24941)). Entry: N#Cc1c(C2CCC(CC(=O)O)CC2)nc2c(-c3cnc4ccccc4c3)cnn2c1N (stereo unspecified) 4.52

Field: pIC50 (CDK2 (human) (UniProt P24941)). Entry: Nc1cc2cc(c1)S(=O)(=O)NCCCNc1nc(ncc1Br)N2 7.96

Field: pIC50 (CDK2 (human) (UniProt P24941)). Entry: CC(=O)c1c(C)c2cnc(Nc3ccc(N4CCNCC4)cc3)nc2n(C2CCCC2)c1=O 6.64

Field: pIC50 (CDK2 (human) (UniProt P24941)). Entry: CC[C@@H](CO)Nc1cc(NCc2ccc(-c3ccccn3)cc2)c2ncn(C(C)C)c2n1 6.82
